# Test system: Giardia intestinalis
# experiment_description: Antiprotozoal activity against Giardia intestinalis IMSS:0696:1 trophozoites after 48 hrs
# Type: functional, organism-based
# measurement_conditions: Giardia duodenalis
Could you please report measured pIC50 for the items listed next?
Give bare numbers, as −log10 of the molar value.

Worked examples follow.
Please report the measured pIC50 for C[C@H]1C(=O)CCC2[C@]3(C)CC[C@@]4(C)C5CC(C)(C)[C@H](O)C[C@]5(C)CC[C@]4(C)C3CC[C@@]21C (stereo partly specified) tested on Giardia intestinalis. 4.70

State, for Giardia intestinalis, measured pIC50 of the compound listed here: CC1=C(O)C(=O)C=C2C1=CC=C1[C@@]2(C)CC[C@@]2(C)[C@@H]3C[C@@H](C)C(=O)C[C@]3(C)CC[C@]12C [TINGENONE] 6.13

Param request: pIC50 | system Giardia intestinalis | item COC(=O)/C=C1\C(C(C)=O)=CC=C2[C@]3(C)CC[C@@]4(C)CC[C@@](C)(C(=O)OC)CC4[C@@]3(C)CC[C@]21C (stereo partly specified) [DZUNUNCANONE] 4.65

Print Giardia intestinalis pIC50 for COC(=O)[C@]1(C)CC[C@]2(C)CC[C@]3(C)C4=CC=C5C(=CC(=O)C(O)=C5C)[C@]4(C)CC[C@@]3(C)[C@@H]2C1 [PRISTIMERIN] . 6.96

Report the value of pIC50 obtained on Giardia intestinalis for COC(=O)[C@]1(C)CC[C@]2(C)CC[C@]3(C)C4=CC=C5C(=CC(=O)[C@]6(O)Oc7cc8c(cc7O[C@]56C)C(=O)C=C5[C@@]8(C)CC[C@@]6(C)[C@@H]7C[C@](C)(C(=O)OC)CC[C@]7(C)CC[C@]56C)[C@]4(C)CC[C@@]3(C)[C@@H]2C1 [XUXARINE EBETA] . 4.95

# ---- query compound ----
Answer briefly: pIC50 recorded on Giardia intestinalis for CC1(C)C[C@H]2C3=CC[C@@H]4[C@@]5(C)CCC(=O)C(C)(C)[C@@H]5CC[C@@]4(C)[C@]3(C)CC[C@@]2(C)C[C@@H]1O 4.56

These measurements were taken from ChEMBL document CHEMBL1147124.
